measuredTarget: T1, human serum albumin (human, UniProt P02768 25-609)
T1 construct: also called HSA; HAS
methodSummary: screening of the unselected immunized library on HSA
observable: binding result

Please review the entries below; each comes with its answer.
binder | binding result
SEQ ID NO 54 (VNAR, clone name not tied to this number; one of the 13 entries may be a consensus) VNAR: ARVDQTPRTATKETGESLTINCVLTDTSYPLYSTYWYRKNPGSSNKEQISISGRYVESVNKGTKSFSLRIKDLTVADSATYICRAYTIHIKLEQHGAGTVLTVN | binds
SEQ ID NO 56 (VNAR, clone name not tied to this number; one of the 13 entries may be a consensus) VNAR: ASVNQTPRTATKETGESLTINCVLTDASYPLYSTYWYRKNPGSSNKEQIPISGRYVESVNKGTKSFSLRIKDLTVADSATYICRAMGTNGWTGDGAGTVLTVN | binds
SEQ ID NO 55 (VNAR, clone name not tied to this number; one of the 13 entries may be a consensus) VNAR: ARVDQTPRTATKETGESLTINCVLTDTSYPLYSTYWYRKNPGSPNKERISISGRYVESVNKGTKSFSLRIKDLTVADSATYICRAMGANSWTGDGAGTALTVN | binds
SEQ ID NO 63 (VNAR, clone name not tied to this number; one of the 13 entries may be a consensus) VNAR: ASVNQTPRTATKETGESLTINCVLTDTSYPLYSTYWYRKNPGSSNKEQIPISGRYVESVNKGTKSFSLRIKDLTVADSATYICRAMDTSAGVVDGAGTVLTVN | binds
SEQ ID NO 59 (VNAR, clone name not tied to this number; one of the 13 entries may be a consensus) VNAR: ARVDQTPRTATKETGESLTINCVLADTSYPLYSTYWYRKNPGSSNKEQISISGRYVESVNKGTKSFSLRIKDLTVADSATYICRASDIAMGTYDGAGTALTVN | binds

Q: What does the record list as binding result for SEQ ID NO 52 (VNAR, clone name not tied to this number; one of the 13 entries may be a consensus) VNAR: IRVDQTPRTATKETGESLTINCVLTGTVCGMYSTSWSRKNPGRADWERISIGGRYVESVNKGAKSFSLRIRDLTVADSATYCCSAESPPICTSQGIAAVTKYYDGAGTVLTVN ?
A: binds

Q: What measured binding result goes with SEQ ID NO 62 (other, clone name not tied to this number; one of the 13 entries may be a consensus) IRVDQTPRTATKETGGSLTINCVLTDTSYPLYSTYWYRKNPGSSNKEQISISGRYVESVNKGTKSFSLRIKDLTVADSATYICRALSTYMEAGDGAGTVLTVN ?
A: binds

Q: Can you look up the measured binding result of SEQ ID NO 53 (VNAR, clone name not tied to this number; one of the 13 entries may be a consensus) VNAR: ARVDQTPRTATKETGESLTINCVLTDTSYPLYSTYWYRKNPGSSNKEQISISGRYVESVNKGTKSFSLRIKDLTVADSATYICRAITTDSWTSDGAGTALTVN for me?
A: binds
